Assay: Measurement of concentration of compounds in blood
Type: in vivo
Conditions: rat, male rats, oral 25 mg/kg, 8 hours after the administration
experimentalReadout: concentration at 8 h (ng/mL)
State just the number; it will be interpreted in ng/mL.

input: For the compound CC1Cc2c(N3CCN(C)CC3)c(F)c(N)c3c(=O)c(C(=O)O)cn1c23 (stereo not shown) , what concentration at 8 h is on record?
output: 310

* * *

System: Serratia marcescens IFO 12648
Assay: Antimicrobial test in vitro (MIC, agar plate dilution method)
Format: cell-based
Parameters: unit not given here
Conditions: S. marcescens IFO 12648; 1×10^8 cells/ml
experimentalReadout: minimum inhibitory concentration (MIC)
Write no unit; give the number alone.

CC1Cc2c(N3CCOCC3)c(F)c(N)c3c(=O)c(C(=O)O)cn1c23 (stereo not drawn) : 0.78
CC1Cc2c(N3CCNCC3)c(F)c(N)c3c(=O)c(C(=O)O)cn1c23 (stereo not drawn) : 0.2
CC1Cc2c(N3CCCC3)c(F)c(N)c3c(=O)c(C(=O)O)cn1c23 (stereo not drawn) : 6.25
CC1Cc2c(N3CCN(C)CC3)c(F)c(N)c3c(=O)c(C(=O)O)cn1c23 (stereo not drawn) : 0.2
CC1Cc2c(N3CCCCC3)c(F)c(N)c3c(=O)c(C(=O)O)cn1c23 (stereo not drawn) : 6.25

Now consider the entry below.
input: For the compound CC1Cc2c(N3CCC(O)CC3)c(F)c(N)c3c(=O)c(C(=O)O)cn1c23 (stereo not drawn) , what minimum inhibitory concentration (MIC) is on record?
output: 3.13
